FYI, the data here is from the CheMixHub viscosity set.

condition_notes: 298.15 K; 101 kPa
value_type: viscosity (mPa·s)
All answers are understood in mPa·s, so give the number only.

Give the reported viscosity for this molecule. "C=CC(=O)OC(C)(C)C"
0.8309

Give the reported viscosity for this molecule. "CCCC[n+]1ccn(C)c1.O=[N+]([O-])[O-]"
158.8

Give the reported viscosity for this molecule. "CCCCCCBr"
0.9475

Give the reported viscosity for this molecule. "C/C=C/C(=O)OCC"
0.7576

Give the reported viscosity for this molecule. "CNC=O"
1.746

Give the reported viscosity for this molecule. "CCCC[n+]1ccn(C)c1C.F[B-](F)(F)F"
573

Give the reported viscosity for this molecule. "c1ccc2c(c1)CCCC2"
1.985

Give the reported viscosity for this molecule. "CCOCCOCCOCC"
1.268

---

condition_notes: 303.15 K; 101 kPa
value_type: viscosity (mPa·s)
All answers are understood in mPa·s, so give the number only.

Example cases with answers are listed next.
Give the reported viscosity for this compound. "CCCCCCCCN(CCCCCCCC)CCCCCCCC"
6.95

Give the reported viscosity for this compound. "C=CC(=O)OC(C)(C)C"
0.76

Give the reported viscosity for this compound. "CCCC[n+]1ccn(C)c1.O=[N+]([O-])[O-]"
121.2

Next:
Give the reported viscosity for this compound. "CCNCCO"
9.639

Give the reported viscosity for this compound. "C/C=C/C(=O)OCC"
0.7053

---

condition_notes: 323.15 K; 101 kPa
Entries whose viscosity is below 2 mPa·s take YES; entries at or above 2 mPa·s take NO.

Known results for compounds:
Input "COC(=O)c1ccccc1" ; condition: viscosity strictly below 2 mPa·s. Does it hold?
YES

Input "CNC=O" ; condition: viscosity strictly below 2 mPa·s. Does it hold?
YES

Input "C/C=C/C(=O)OCC" ; condition: viscosity strictly below 2 mPa·s. Does it hold?
YES

Next:
Input "CCNCCO" ; condition: viscosity strictly below 2 mPa·s. Does it hold?
NO

Input "CCCCOCCO" ; condition: viscosity strictly below 2 mPa·s. Does it hold?
YES

Input "CCCC[n+]1ccn(C)c1.O=[N+]([O-])[O-]" ; condition: viscosity strictly below 2 mPa·s. Does it hold?
NO

---

condition_notes: 313.15 K; 101 kPa
value_type: viscosity (mPa·s)
All answers are understood in mPa·s, so give the number only.

Example cases with answers are listed next.
Give the reported viscosity for this compound. "[Cl-].[Cl-].[Cl-].[Cl-].[Ti+4]"
0.702

Give the reported viscosity for this compound. "C/C=C/C(=O)OCC"
0.6154

Give the reported viscosity for this compound. "CCNCCO"
6.419

Give the reported viscosity for this compound. "CCCC[n+]1ccn(C)c1.O=[N+]([O-])[O-]"
74.19

Give the reported viscosity for this compound. "C=CC(=O)OC(C)(C)C"
0.6485

# evaluate next
Give the reported viscosity for this compound. "CCCCCC[N+]1(C)CCCC1.O=S(=O)([N-]S(=O)(=O)C(F)(F)F)C(F)(F)F"
52.7

---

This section presents compounds with their documented viscosity values.
condition_notes: 303.15 K; 100 kPa
All answers are understood in mPa·s, so give the number only.

Give the reported viscosity for this compound. "CCCCCCCCCCCC[P+](CCCC)(CCCC)CCCC.N#Cc1ccc[n-]1"
297

Next:
Give the reported viscosity for this compound. "C[N+](C)(C)C.[OH-]"
2.71

Give the reported viscosity for this compound. "CCCCCC(C)C"
0.444

Give the reported viscosity for this compound. "CCCC[n+]1ccn(C)c1.N#C[C-](C#N)C#N"
22.85
